- System under test: T1, biotinylated-AviTag-haBiP^T229A-V461F (residues 27–635), unmodified (Chinese hamster, UniProt G3I8R9 27-635, T229A | V461F, biotin on the N-terminal Avi-tag)
- T1 construct: Chinese hamster BiP residues 27–635; identical to human BiP over this range; A GS linker stands between the Avi-tag and BiP residue 27; also called unmodified BiP; BiP:ATP; source: E. coli, purified; biotinylated in vitro with GST-BirA, made nucleotide-free, MonoQ; not shown: His6-Smt3, N-terminal, cleaved; Avi-tag (biotinylated), N-terminal, kept
- T1 sequence (G3I8R9 27-635 T229A/V461F): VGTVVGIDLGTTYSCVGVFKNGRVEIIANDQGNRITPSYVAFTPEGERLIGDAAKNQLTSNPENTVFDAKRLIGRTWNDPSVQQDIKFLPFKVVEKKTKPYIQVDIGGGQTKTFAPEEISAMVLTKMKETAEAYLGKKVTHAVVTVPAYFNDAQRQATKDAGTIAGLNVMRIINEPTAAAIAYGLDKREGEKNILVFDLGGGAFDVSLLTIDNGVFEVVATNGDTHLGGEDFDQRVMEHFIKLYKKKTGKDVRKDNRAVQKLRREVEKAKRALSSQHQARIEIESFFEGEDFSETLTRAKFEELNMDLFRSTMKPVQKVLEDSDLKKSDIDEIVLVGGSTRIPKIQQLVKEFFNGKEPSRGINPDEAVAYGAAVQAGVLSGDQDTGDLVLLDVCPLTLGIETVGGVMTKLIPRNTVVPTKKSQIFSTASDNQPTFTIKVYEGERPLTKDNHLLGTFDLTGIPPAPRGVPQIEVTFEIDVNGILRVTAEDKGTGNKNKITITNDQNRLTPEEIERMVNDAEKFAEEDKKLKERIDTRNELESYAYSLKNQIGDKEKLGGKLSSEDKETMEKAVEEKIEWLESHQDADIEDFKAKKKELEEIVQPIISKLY
- Experimental protocol: BLI; biotinylated nucleotide-free BiP (BiP:Apo) immobilised on streptavidin biosensor, before ATP activation; 16 µM TPR domain for 50 s; HKMTx, 30 °C
- Assay setup: both partners purified
Quantity: Kd

Ask: Fill in the blank: the reported Kd of isolated TPR domain of FICD (domain or fragment) LEARAALNQALEMKRQGKREKAQKLFMHALKMDPDFVDALTEFGIFSEEDKDIIQADYLYTRALTISPYH is ____.
Reply: > 160 µM
